test system: Malme-3M; experiment: NCI tumour cell line growth inhibition, 48 h
Active and inactive are the calls of the source. Rule as the data show it: active = GI50 up to about 1.1 µM and inactive = higher.
READOUT NAME: GI50

**Q:** Look at this compound and give its reported GI50. COC(=O)[C@]1(c2ccc(N(C)C)cc2OC)C[C@@H]2CCCN(CCc3c1[nH]c1ccccc31)C2
**A:** 15.9 µM (inactive)

**Q:** Need GI50 of CC1=NN(C(=O)c2ccccc2O)C(=O)/C1=C/c1ccc([N+](=O)[O-])cc1 , thanks.
**A:** 0.247 µM (active)

**Q:** Value lookup for GI50; key = Cc1ccc2c(C(=O)c3c(C)n(CCN4CCOCC4)c4ccccc34)cccc2c1
**A:** 5.98 µM (inactive)

**Q:** Sample O=C1C2C3CCC(C2C(=O)N1CO)C1C2C(=O)N(CO)C(=O)C2C31 (stereo unspecified) — what was its GI50?
**A:** > 100 µM (inactive)

**Q:** Give the measured GI50 of Clc1ccc(Cc2nc3cc(Cl)c(Cl)cc3n2CC2CCCN3CCCCC23)cc1 (stereo unspecified) .
**A:** 7.87 µM (inactive)

**Q:** Need GI50, item CN1C(=O)C(O)CC1c1ccccc1F (stereo unspecified)
**A:** > 100 µM (inactive)

**Q:** What value of GI50 has been recorded for this entry: C[C@@H](C(=O)O)N1C(c2ccco2)=C(/C(C=O)=C\c2ccco2)C(=O)/C1=C\c1ccco1
**A:** > 100 µM (inactive)

**Q:** Reported GI50, compound O=C(NN=C(c1ccccc1)c1ccccc1)/C(O)=C/C(=O)c1ccc(Cl)cc1 : ____
**A:** 20.7 µM (inactive)

**Q:** So what's the measured GI50 for this one? O=C(NN1C(=O)/C(=C/c2ccc(Cl)cc2)N=C1c1ccccc1)c1c(Cl)c(Cl)c(Cl)c(Cl)c1-c1nc2ccccc2[nH]1
**A:** 20.8 µM (inactive)

**Q:** Param item = CC1=NN2C(=N)/C(=C/c3ccco3)C(=O)N=C2S1 ; retrieve measured GI50.
**A:** > 100 µM (inactive)

**Q:** Endpoint output: GI50 of CCOC(=O)/C(=C\c1ccc[nH]1)C(=O)c1ccccc1 . Value?
**A:** > 100 µM (inactive)
